- assayed_system: UniProt P49880
- Sequence (P49880 with tags, fused parts or gaps limits assumed, change not shown): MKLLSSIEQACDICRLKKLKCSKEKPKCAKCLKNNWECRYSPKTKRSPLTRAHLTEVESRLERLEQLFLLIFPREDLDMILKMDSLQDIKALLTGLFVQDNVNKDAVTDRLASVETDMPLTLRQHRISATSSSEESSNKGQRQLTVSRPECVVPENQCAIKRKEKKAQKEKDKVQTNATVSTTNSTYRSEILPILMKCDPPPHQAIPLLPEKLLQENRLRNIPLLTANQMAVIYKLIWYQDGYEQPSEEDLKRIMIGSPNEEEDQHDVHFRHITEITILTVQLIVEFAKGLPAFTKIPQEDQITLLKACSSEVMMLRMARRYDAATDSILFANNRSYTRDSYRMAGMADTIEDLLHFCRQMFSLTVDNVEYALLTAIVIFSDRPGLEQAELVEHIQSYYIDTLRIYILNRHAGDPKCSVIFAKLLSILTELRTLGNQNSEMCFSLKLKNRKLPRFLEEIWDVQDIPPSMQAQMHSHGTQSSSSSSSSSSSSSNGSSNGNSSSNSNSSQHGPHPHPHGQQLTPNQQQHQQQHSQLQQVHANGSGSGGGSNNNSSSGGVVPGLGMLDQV
- assay_text: Two-hybrid gene switch assay, luciferase reporter, wild-type AaEcR, mouse NIH3T3 cells
- Assay type: cell-based
- assay_context: FIG. 14A/14B, GAL4-EcR(DEF) with VP16-RXR-USP chimera, read-out: EC50
measurement_type: EC50

Look over these answered cases.
>>> result("CC(C(O)CCC(C)(C)O)C1CCC2(O)C3=CC(=O)C4CC(O)CCC4(C)C3CCC12C (centres unmarked)")
"~10 µM"
>>> result("CC(C)(O)CC[C@@H](O)[C@](C)(O)[C@H]1CC[C@@]2(O)C3=CC(=O)[C@@H]4C[C@@H](O)[C@@H](O)[C@@H](O)[C@]4(C)[C@H]3CC[C@]12C")
"~10 µM"

I need EC50 for every entry listed below, if you could help.
1. CC(C)(O)CCC(=O)[C@](C)(O)[C@H]1CC[C@@]2(O)C3=CC(=O)[C@@H]4C[C@@H](O)[C@@H](O)C[C@]4(C)[C@H]3CC[C@]12C [Compound 22-dehydro-20-hydroxyecdysone]
2. CC1(C)OC(=O)C=C1CC(O)C(C)(O)C1CCC2(O)C3=CC(=O)C4CC(O)C(O)CC4(C)C3CCC12C (centres unmarked)
3. CC(C)(O)CC[C@@H](O)[C@](C)(O)[C@H]1CC[C@@]2(O)C3=CC(=O)[C@@H]4C[C@H]5OC(C)(C)O[C@H]5C[C@]4(C)[C@H]3CC[C@]12C [20-hydroxyecdysone-2,3-acetonide]
4. CC(C)(O)CC[C@@H](O)[C@](C)(O)[C@H]1CC[C@@]2(O)C3=C[C@@H](O)[C@@H]4C[C@@H](O)[C@@H](O)C[C@]4(C)[C@H]3CC[C@]12C [Compound 6b-hydroxy-20-hydroxyecdysone]
5. CC(C)(O)CC[C@@H](O)[C@](C)(O)[C@H]1CC[C@@]2(O)C3=CC(=O)[C@H]4C[C@@H](O)[C@@H](O)C[C@]4(C)[C@H]3CC[C@]12C [(5a-H)-20-hydroxyecdysone]
6. CC(C)(O)C(CCC(C)(O)C1CCC2(O)C3=CC(=O)C4CC(O)C(O)CC4(C)C3CCC12C)OC(=O)c1ccc[nH]1 (centres unmarked)
7. CC(C)(O)CCC(O)C(C)(O)C1CCC2(O)C3=CC(=O)C4CC(O)CCC4(C)C3CCC12C (centres unmarked) [Compound 2-deoxy-20-hydroxyecdysone]

*A*
1. ~2 µM
2. ~15 µM
3. ~15 µM
4. ~6 µM
5. ~20 µM
6. ~0.2 µM
7. ~5 µM

List the reported EC50 of each molecule below.
1. CCC(CC(O)C(C)(O)C1CCC2(O)C3=CC(=O)C4CC(O)C(O)CC4(C)C3CCC12C)C(C)(C)O (centres unmarked)
2. CC(=O)O[C@H](CCC(C)(C)O)[C@](C)(O)[C@H]1CC[C@@]2(O)C3=CC(=O)[C@@H]4C[C@@H](O)[C@@H](O)C[C@]4(C)[C@H]3CC[C@]12C [Compound 20-hydroxyecdysone-22-acetate]

*A*
1.02 µM
~2 µM

###

- assayed_system: AmaEcR (GAL4-EcR DEF with VP16-RXR-USP chimera) (Amblyomma americanum)
- Sequence (O44338 255-570): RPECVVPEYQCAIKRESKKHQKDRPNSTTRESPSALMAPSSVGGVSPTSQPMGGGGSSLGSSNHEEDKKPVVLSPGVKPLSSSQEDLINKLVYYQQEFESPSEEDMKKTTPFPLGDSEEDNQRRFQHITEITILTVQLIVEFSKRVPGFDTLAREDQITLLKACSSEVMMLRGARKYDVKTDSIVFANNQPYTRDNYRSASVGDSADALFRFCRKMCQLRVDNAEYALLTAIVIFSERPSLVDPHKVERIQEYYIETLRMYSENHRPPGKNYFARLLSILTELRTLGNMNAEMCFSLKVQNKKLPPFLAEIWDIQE
- Sequence (P28702 1-533 partner): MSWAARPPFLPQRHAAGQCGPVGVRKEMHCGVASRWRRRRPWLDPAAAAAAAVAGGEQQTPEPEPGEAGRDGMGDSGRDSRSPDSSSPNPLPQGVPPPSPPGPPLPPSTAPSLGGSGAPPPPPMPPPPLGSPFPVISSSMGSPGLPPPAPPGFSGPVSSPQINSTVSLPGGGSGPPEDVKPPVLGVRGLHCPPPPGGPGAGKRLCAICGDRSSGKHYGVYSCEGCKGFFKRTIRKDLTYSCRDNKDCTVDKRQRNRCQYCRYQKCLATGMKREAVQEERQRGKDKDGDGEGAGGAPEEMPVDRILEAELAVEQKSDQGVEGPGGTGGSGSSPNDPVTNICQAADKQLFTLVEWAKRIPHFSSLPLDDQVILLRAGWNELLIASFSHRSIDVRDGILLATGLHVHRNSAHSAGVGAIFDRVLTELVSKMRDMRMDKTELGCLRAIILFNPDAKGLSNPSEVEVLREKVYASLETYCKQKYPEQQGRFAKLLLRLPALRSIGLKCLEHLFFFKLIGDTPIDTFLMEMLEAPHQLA
- assay_text: Two-hybrid gene switch assay, luciferase reporter, AmaEcR, mouse NIH3T3 cells
- assay_context: EC50, FIG. 14A/14B, GAL4-EcR(DEF) with VP16-RXR-USP chimera
Kindly supply the reported EC50 values for the records listed here.

Take a look at these entries with their results.
>>> result("CC(C)=CC[C@@H](O)[C@](C)(O)[C@H]1CC[C@@]2(O)C3=CC(=O)[C@@H]4C[C@@H](O)[C@@H](O)C[C@]4(C)[C@H]3CC[C@]12C")
"~0.1 µM"
>>> result("CC(=O)O[C@H](CCC(C)(C)O)[C@](C)(O)[C@H]1CC[C@@]2(O)C3=CC(=O)[C@@H]4C[C@@H](O)[C@@H](O)C[C@]4(C)[C@H]3CC[C@]12C [Compound 20-hydroxyecdysone-22-acetate]")
"~2 µM"
>>> result("CC(C)(O)CC[C@@H](O)[C@](C)(O)[C@H]1CC[C@@]2(O)C3=CC(=O)[C@@H]4C[C@@H](O)[C@@H](O)[C@@H](O)[C@]4(C)[C@H]3CC[C@]12C")
"~10 µM"
>>> result("CC(C)(O)CC[C@@H](O)[C@](C)(O)[C@H]1CC[C@@]2(O)C3=C[C@@H](O)[C@@H]4C[C@@H](O)[C@@H](O)C[C@]4(C)[C@H]3CC[C@]12C [Compound 6b-hydroxy-20-hydroxyecdysone]")
"~3.3 µM"
>>> result("CC1(C)OC(=O)C=C1CC(O)C(C)(O)C1CCC2(O)C3=CC(=O)C4CC(O)C(O)CC4(C)C3CCC12C (stereo not shown)")
"~20 µM"

Hey, can you go through the list below and give me EC50 for every item?
1. CC(C)(O)CC[C@@H](O)[C@](C)(O)[C@H]1CC[C@@]2(O)C3=CC(=O)[C@@H]4C[C@H](O)[C@@H](O)C[C@]4(C)[C@H]3CC[C@]12C
2. CC(C)CC[C@@H](O)[C@](C)(O)[C@H]1CC[C@@]2(O)C3=CC(=O)[C@@H]4C[C@@H](O)[C@@H](O)C[C@]4(C)[C@H]3[C@H](O)C[C@]12C
3. CC(C)(O)CCCC(C)(O)C1CCC2(O)C3=CC(=O)C4CC(O)C(O)CC4(C)C3CCC12C (stereo not shown)
4. CC(C)(O)CCC(=O)[C@](C)(O)[C@H]1CC[C@@]2(O)C3=CC(=O)[C@@H]4C[C@@H](O)[C@@H](O)C[C@]4(C)[C@H]3CC[C@]12C [Compound 22-dehydro-20-hydroxyecdysone]
5. CC(=O)C1CCC2(O)C3=CC(=O)C4CC(O)C(O)CC4(C)C3CCC12C (stereo not shown)
6. CCC(CC(O)C(C)(O)C1CCC2(O)C3=CC(=O)C4CC(O)C(O)CC4(C)C3CCC12C)C(C)(C)O (stereo not shown)

*A*
["~10 µM", "~0.2 µM", "~10 µM", "~7 µM", "> 33 µM", "~2 µM"]

Your task in this section: give EC50 for each listed record.
1. CC(CC(O)C(C)(O)C1CCC2(O)C3=CC(=O)C4CC(O)C(O)CC4(C)C3CCC12C)C(C)(C)O (stereo not shown)
2. C[C@@H](CO)CC[C@@H](O)[C@](C)(O)[C@H]1CC[C@@]2(O)C3=CC(=O)[C@@H]4C[C@@H](O)[C@@H](O)C[C@]4(C)[C@H]3CC[C@]12C [(25R)-inokosterone]
3. CC(C)(O)C(CCC(C)(O)C1CCC2(O)C3=CC(=O)C4CC(O)C(O)CC4(C)C3CCC12C)OC(=O)c1ccc[nH]1 (stereo not shown)
4. CC(C)(O)CC[C@@H](O)[C@](C)(O)[C@H]1CC[C@@]2(O)C3=CC(=O)[C@H]4C[C@@H](O)[C@@H](O)C[C@]4(C)[C@H]3CC[C@]12C [(5a-H)-20-hydroxyecdysone]

*A*
1.4 µM
~3.3 µM
~0.3 µM
> 33 µM

List EC50 for every entry below, keeping the order given.
1. CCCCCCCCCC(=O)OC1CC2(C)C(C(C)(O)C(O)CCC(C)(C)O)CCC2(O)C2=CC(=O)C3CC(O)C(O)CC3(C)C21 (stereo not shown) [turkesterone-11a-decanoate]
2. CC(C)(O)CC[C@@H](OC(=O)c1ccc[nH]1)[C@](C)(O)[C@H]1CC[C@@]2(O)C3=CC(=O)[C@@H]4C[C@@H](O)[C@@H](O)C[C@]4(C)[C@H]3CC[C@]12C
3. CC(=O)OCC(=O)O[C@H](CCC(C)(C)O)[C@](C)(O)[C@H]1CC[C@@]2(O)C3=CC(=O)[C@@H]4C[C@@H](O)[C@@H](O)C[C@]4(C)[C@H]3CC[C@]12C [20-hydroxyecdysone 22-acetoxyacetate]
4. CC(C)(O)CCC(O)C(C)(O)C1CCC2(O)C3=CC(=O)C4CC(O)CCC4(C)C3CCC12C (stereo not shown) [Compound 2-deoxy-20-hydroxyecdysone]

*A*
1: > 33 µM; 2: ~5 µM; 3: ~3.3 µM; 4: ~5 µM

Each of the following entries comes with a recorded value; kindly state EC50 for each.
1. CC(C)(O)CC[C@@H](O)[C@](C)(O)[C@H]1CC[C@@]2(O)C3=CC(=O)[C@]4(O)C[C@@H](O)[C@@H](O)C[C@]4(C)[C@H]3CC[C@]12C
2. CCCCCC(=O)OC1CC2(C)C(C(C)(O)C(O)CCC(C)(C)O)CCC2(O)C2=CC(=O)C3CC(O)C(O)CC3(C)C21 (stereo not shown) [turkesterone-11 a -hexanoate]
3. C[C@@H]1C(=O)O[C@H](C)[C@H]1C[C@@H](O)[C@](C)(O)[C@H]1CC[C@@]2(O)C3=CC(=O)[C@@H]4C[C@@H](O)[C@@H](O)C[C@]4(C)[C@H]3CC[C@]12C

*A*
~3.3 µM
~10 µM
~0.3 µM
